FYI, the data here is from PubChem BioAssay (NCI).

# METHOD DESCRIPTION: NCI Yeast Anticancer Drug Screen. Data for the CLN2oe strain (AID 163);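 also: 0% = growth of vehicle-only control cultures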
# CONDITION LABEL: S. cerevisiae CLN2oe strain, at 11.0 µM, hits give high values
This is part of a sample that, as a whole, favours compounds with a hit. Of some 79,000 tested, about 15% had one in any assay. Activity calls are given as the source filed them. Rule as the data show it: active = growth inhibition above about 70%; inactive = the rest.
Would you mind telling me the reported growth inhibition of each entry?

Below: 5 compounds and their reported growth inhibition.
1) COc1ccc(/C(C)=N/OC(=O)c2c(-c3ccccc3Cl)noc2C)cc1CN1CCOCC1	8% (inactive)
2) COc1ccc(/C=C/C(=O)C(C)(C)Br)cc1	20% (inactive)
3) CC(/C=C/c1ccc2c(c1)OCO2)[N+](=O)[O-] (stereo not given)	99% (active)
4) COC(=O)C1=C(C)NC(C)=C(C(=O)OCCCN2CCC(c3ccccc3)(c3ccccc3)CC2)C1c1cccc([N+](=O)[O-])c1 (stereo not given)	96% (active)
5) OC1(c2ccccc2)CSC2=Nc3ccccc3C3CCN1N23 (stereo not given)	-46% (inactive)

Your task in this section: give growth inhibition for each listed record.
1. COc1cc(C2c3cc4c(cc3OC(Nc3ccccc3)C2C)OCO4)cc(OC)c1O (stereo not given)
2. NC1=NS(=O)(=O)N=C(N)C1=Cc1ccc([N+](=O)[O-])o1
3. c1ccc2c(c1)-c1nc3ccccc3cc1C2N1CCOCC1 (stereo not given)
4. O=c1ssc2ncccc12
5. COP(=O)(OC)/C(=C\C1=CN(C(c2ccccc2)(c2ccccc2)c2ccccc2)CN1)NC=O

1: 1% (inactive); 2: -11% (inactive); 3: -10% (inactive); 4: 45% (inactive); 5: -8% (inactive)

###

# METHOD DESCRIPTION: NCI Yeast Anticancer Drug Screen. Data for the sgs1 mgt1 strain (AID 161);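 also: 0% = growth of cultures given vehicle only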
# CONDITION LABEL: S. cerevisiae sgs1 mgt1 strain, at 50.0 µM, hits give high values
This is part of a sample that, as a whole, favours compounds with a hit. Of some 79,000 tested, about 15% had one in any assay.
READOUT NAME: growth inhibition (%)
Give bare numbers, in %.

Some compounds with known growth inhibition results, for comparison:
1. COc1ccc2nc3c([N+](=O)[O-])ccc(NCCN(C)C)c3c(NCCN(C)C)c2c1	3.95
2. NC(=S)N/N=C\c1nccc2ccccc12	99
3. COc1cc2c3c(cccc3c1)C(=O)N(CCN(C)C)C2=O	-13.1
4. Nc1ccc2c(c1)C(=O)c1cccc(N)c1C2=O	42.9
5. CN(N=O)N1C(=O)SCC(c2ccccc2)(c2ccccc2)C1=O	48.5

Give measured growth inhibition for every item shown.
1. CC(=O)Oc1ccc2c(c1)Cc1cc(N=C3C=CC(=O)O3)ccc1-2
2. CC(CC(C)(C)[N+](C)(C)C)[N+](C)(C)C (centres undefined)
3. O=C(NCCCCNCCCNC(=O)c1cc(-c2ccccc2)nc2ccccc12)c1cc(-c2ccccc2)nc2ccccc12
4. C=CCC1=C(C)C(OC(=O)/C=C/c2ccccc2)CC1=O (centres undefined)

1. 99.6
2. 95.8
3. 97.5
4. 19.4

Hi, could you look up growth inhibition for each item in my list?
1. S=C(N/N=C(/c1ccccc1)c1ccccn1)N1CCCCCC1
2. CC1C(NNc2ccccc2)Oc2cc3c(cc2C1c1ccccc1O)OCO3 (centres undefined)
3. c1ccc2c(c1)c1ncccc1c1nccnc21
4. CN=C(N)N/N=C/c1ccc2c(c1)Cc1ccccc1-2
5. Oc1ccc(NCn2c(=S)sc3ccccc32)cc1
6. COc1cc2ccc(/C=C\[N+](=O)[O-])cc2cc1OC
7. CC(C)OC(=O)Oc1ccccc1OC(=O)OC(C)C

85.4
89.6
0
30.2
91.2
90.7
1.8

Give growth inhibition for each listed item.
1. CO[C@H]1C[C@](C)(O)Cc2cc3c(c(O)c21)C(=O)c1c(O)cc2c(c1C3=O)O[C@@H]1O[C@@]2(C)[C@H](O)[C@@H](N(C)C)[C@@H]1O
2. COc1ccc(O)c(/C=N\Nc2ccccc2)c1

14.3
98.8

###

# METHOD DESCRIPTION: NCI Yeast Anticancer Drug Screen. Data for the mlh1 rad18 strain (AID 175)
# CONDITION LABEL: S. cerevisiae mlh1 rad18 strain growth inhibition; at 50.0 µM; hits give high values
Compounds without any hit were thinned out: in the full panel of roughly 79,000, 15% have a hit.
# label = bin(measured growth inhibition), where bins are band 1: < 60%; band 2: ≥ 60% and < 90%; band 3: ≥ 90%

Some entries whose results are on file:
1) C/C(=N\O)C1CC2C=C(C#N)C1N(Cc1ccccc1)C2 (stereo not given)	band 1
2) O=CC=C(c1ccccc1)c1ccccc1	band 1
3) Cc1ccc(S(=O)(=O)NNC(=S)Nc2cccc3ccccc23)cc1	band 1
4) NC(=O)NN=C(CS)CS	band 2
5) OC(COc1cccc2ccccc12)CN1CCOCC1 (stereo not given)	band 1

Assign a category based on measured growth inhibition for CC(=O)OCC(=O)C1(O)CCC2C3CCC4CCCCC4(C)C3CCC21C (stereo not given) and give only the class name.
band 2

Which bin should I file O=CNc1ccc2c(c1)C(=O)c1ccccc1-2 under?
band 2

Hey, which category is O=[N+]([O-])c1cccc2nc3ccccc3c(NCCCN3CCOCC3)c12 in, do you know?
band 3

Lab log: COCCOC(=O)CCn1cc(F)c(=O)[nH]c1=O — assign growth inhibition category
band 2

For this molecule, which bin applies? Cc1ccc(Nc2nc3c(=O)n(C)c(=O)n(C)c3nc2Nc2ccc(C)cc2)cc1
band 3

###

Please provide measured growth inhibition for the entries that follow.
# METHOD DESCRIPTION: NCI Yeast Anticancer Drug Screen. Data for the sgs1 strain (AID 173);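 also: 0% = growth of vehicle-only control cultures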
# CONDITION LABEL: S. cerevisiae sgs1 mutant, at 100.0 µM, hits give high values
The panel holds about 79,000 compounds, 15% with a hit somewhere; the sample as a whole holds those more often. The source made the active and inactive calls. No stated cut-off is given here; in the data, active means growth inhibition above about 70%; inactive means the rest.

Worked cases, answers included:
1. Brc1ccc(-c2cc3c(cc2C2SCCS2)OCO3)cc1	76% (active)
2. CCCCCCc1cc(C(=O)OC/C(C)=N/NC(N)=O)c2ccccc2n1	-4% (inactive)
3. C[CH2][Sn]([CH2]C)([O]C(=O)C(OC(C)=O)c1ccccc1)[O]C(=O)C(OC(C)=O)c1ccccc1 (stereo not given)	94% (active)

Record growth inhibition per entry; entries follow.
1. CCOC(=O)c1cnc2cc(C(F)(F)F)ccc2c1N=[N+]=[N-]
2. CC/C(=C(\c1ccccc1)c1ccc(OCCN(C)C)cc1)c1ccccc1
3. CCCCCCCCCC/C=C\C(=O)O
4. CC(C)C1=CCC2C(=C1)CCC1C(C)(C(=O)O)CCCC21C (stereo not given) (tested in a mixture with another compound)

1. 94% (active)
2. 97% (active)
3. 98% (active)
4. 96% (active)

For every record below, what is its growth inhibition?
1. O=[N+]([O-])c1cccc2nc3ccccc3c(NCCCN3CCOCC3)c12
2. O=Cc1cccc2ccc3ccccc3c12
3. Cc1nc(-[n+]2nc(-c3ccncc3)nn2-c2ccccc2)sc1C

98% (active)
99% (active)
77% (active)

###

# METHOD DESCRIPTION: NCI Yeast Anticancer Drug Screen. Data for the rad50 strain (AID 155);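 also: 0% = growth of vehicle-only cultures of the same strain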
# CONDITION LABEL: S. cerevisiae rad50 strain growth inhibition; at 1.2 µM; hits give high values
About 79,000 compounds went through this panel and 15% of them were active in at least one assay; those are over-represented in the sample as a whole.
Could you please report measured growth inhibition for the items listed next?
Numbers only, in %.

Below, each entry is followed by its recorded growth inhibition result.
1. O=[N+]([O-])c1ccc2c(c1)C(N1CCN(CCO)CC1)Cc1ccc(F)cc1S2 (stereo not given)	1
2. CC(C)(C)c1nc2c(o1)C(=O)c1ccccc1C2=O	-56
3. O=[N+]([O-])c1cccc([N+](=O)[O-])c1S(=O)(=O)c1ccccc1	83
4. NC(=S)N/N=C\c1nccc2ccccc12	-5

Here is another compound to look at.
Give growth inhibition for CO[C@H]1C[C@](C)(O)Cc2cc3c(c(O)c21)C(=O)c1c(O)cc2c(c1C3=O)O[C@@H]1O[C@@]2(C)[C@H](O)[C@@H](N(C)C)[C@@H]1O
-44

###

Hi there, I'd appreciate the recorded growth inhibition for every entry that follows.
# METHOD DESCRIPTION: NCI Yeast Anticancer Drug Screen. Data for the rad50 strain (AID 155);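 also: 0% = growth of vehicle-only cultures of the same strain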
# CONDITION LABEL: S. cerevisiae rad50 strain growth inhibition; at 11.0 µM; hits give high values
The panel holds about 79,000 compounds, 15% with a hit somewhere; the sample as a whole holds those more often.
Numbers only, in %.

1. CCCCc1cc(O)ccc1O	32
2. S=C(Nc1ccc(Cl)cc1)SC1CCCCC1	96
3. COc1cc(/C=C2\CCc3ccccc3C2=O)cc(OC)c1OC	-17
4. C(=C\c1ccccc1)/COc1ccccc1C(N1CCOCC1)n1nc2ccccc2n1 (stereo unspecified)	8
5. CCN(CC)C(=S)N/N=C(/C)c1cccc(/C(C)=N\NC(=S)N(CC)CC)n1	-12

Item CCC#CCCCOC(=O)c1cc([N+](=O)[O-])cc([N+](=O)[O-])c1 : provide growth inhibition
0
